Listing of recorded %Inh by entry.
- Tested on: FES;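 also: KINOMEscan kinase panel screen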
- study-conditions: concentration: 1 μM, replicates: in singlicate; n = 1
assay-endpoint: %Inh

1. Nc1ncnc2c1ncn2-c1cccc2ccccc12 : 0%
2. O=C(Nc1ccc2c(c1)OCO2)NC1CCN(c2ccnc(NCc3ccc(F)cc3)n2)CC1 : 0%
3. CN1C(=O)C(Nc2ccccc2)=C(c2ccccc2)C1=O : 0%
4. CCS(=O)(=O)c1ccc(OC)c(Nc2ncc(-c3ccc(F)cc3)o2)c1.Cl : 0%
5. O=C(Nc1n[nH]c2cc(-c3ccccc3F)ccc12)C1CC1 : 1%
6. CN1C(=O)C(Nc2cc(Cl)c(O)c(Cl)c2)=C(c2ccc(Cl)cc2)C1=O : 0%
7. Nc1nc(-c2ccccc2F)c(-c2ccnc3ccccc23)s1 : 0%
8. CN(C)c1cc(-c2ccc3c(N)n[nH]c3c2)nc(N)n1 : 0%
9. Cc1cccc(-c2nc(Nc3ccc4c(cnn4C)c3)c3ccccc3n2)n1 : 4%
10. O=C(Nc1n[nH]c2nc(-c3ccccc3)c(Br)cc12)C1CC1 : 0%
